Record form. Attribute: IC50. Fill in for each entry.
# system_name: HDM2 (Homo sapiens, UniProt Q00987)
# Construct: Thioredoxin (N); made in house; host or cells: E. coli strain BL21(DE3)Rosetta
# Sequence (Q00987 17-125): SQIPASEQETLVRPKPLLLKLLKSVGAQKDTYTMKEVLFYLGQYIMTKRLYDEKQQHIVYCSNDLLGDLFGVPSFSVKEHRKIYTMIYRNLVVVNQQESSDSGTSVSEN
# measurement_description: HDM2 FRET assay (inhibition of binding of FITC labeled p53-pocket peptide to HDM2)
# condition_description: Table 23; read-out: FRET IC50
Don't forget the unit after the number, please.

# get_value(readout='IC50', item= `COC1(c2nc3nc(-c4noc(=O)[nH]4)nc(-c4cncc(Cl)c4)c3n2C[C@H]2CC[C@H](C)CC2)CCC1` ) 13.1 nM

Query COC(C)(c1ccccc1F)c1nc2nc(-c3noc(=O)[nH]3)nc(-c3cncc(Cl)c3)c2n1C[C@H]1CC[C@H](C)CC1 (single isomer, unassigned) next 0.888 nM

Query C[C@H]1CC[C@H](Cn2c(C(O)C3CCOCC3)nc3nc(-c4n[nH]c(=O)o4)nc(-c4cccc(Cl)c4)c32)CC1 (mixture of isomers) next 67.3 nM
